Molecular target: recombinant human EP-2 receptor (Homo sapiens, UniProt P43116)
Construct: stably transfected with full length cDNA encoding human Prostaglandin E2
Sequence (P43116 whole entry): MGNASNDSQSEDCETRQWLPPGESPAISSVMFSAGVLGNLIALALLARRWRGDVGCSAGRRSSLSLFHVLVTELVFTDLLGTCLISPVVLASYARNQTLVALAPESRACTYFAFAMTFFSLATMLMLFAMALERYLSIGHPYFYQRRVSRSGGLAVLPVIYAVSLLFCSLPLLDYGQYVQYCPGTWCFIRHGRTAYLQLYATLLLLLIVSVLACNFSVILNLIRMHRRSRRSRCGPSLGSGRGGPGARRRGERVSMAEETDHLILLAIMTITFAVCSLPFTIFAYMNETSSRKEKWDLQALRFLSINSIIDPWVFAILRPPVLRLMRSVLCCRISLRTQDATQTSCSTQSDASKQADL
Test: In vitro antagonist potency against recombinant human prostaglandin E2 (EP-2) receptor in CHO cells (cAMP, Protocol 1)
Settings: CHO cells expressing recombinant human EP-2 receptor, stimulated with 5 nM PGE2; cAMP readout; Ki by Cheng-Prusoff equation; read-out: EP2 Ki
Recorded measurements of Ki, one per entry
Mention the unit after the number when you answer.

Worked cases, answers included:
{"Molecule": "O=C(c1ccc(Cl)cc1)N1CCC(COc2ccc(-c3ccc(Cl)cc3)nc2)(C(=O)O)C1 (single isomer, unassigned) [Example 33]", "Ki": "141 nM"}
{"Molecule": "COc1ccccc1C(=O)N1CCC(COc2ccc(-c3ncc(C#N)cn3)cc2)(C(=O)O)C1 (single isomer, unassigned) [Example 65]", "Ki": "175 nM"}
{"Molecule": "O=C(Nc1ccccc1Cl)N1CCC(COc2ccc(-c3ccc(F)cc3)cc2)(C(=O)O)C1 (single isomer, unassigned) [Example 99]", "Ki": "1.99 nM"}
{"Molecule": "O=C(c1ccc(F)cc1)N1CCC(COc2ccc(F)c(Cl)c2)(C(=O)O)C1 (single isomer, unassigned) [Example 25]", "Ki": "192 nM"}
{"Molecule": "N#Cc1ccc(-c2ccc(OCC3(C(=O)O)CCN(C(=O)c4ccc(Cl)cc4)C3)cc2)cc1 (single isomer, unassigned) [Example 27]", "Ki": "4.34 nM"}
{"Molecule": "O=C(C1CCCC1)N1CCC(COc2ccc(-c3ccc(F)cc3)cc2)(C(=O)O)C1 (single isomer, unassigned) [Example 82]", "Ki": "524 nM"}
{"Molecule": "CCOc1ccccc1C(=O)N1CCC(COc2cnc(-c3ccc(Cl)cc3)nc2)(C(=O)O)C1 (single isomer, unassigned) [Example 58]", "Ki": "884 nM"}
{"Molecule": "CCOc1ccccc1C(=O)N1CCC(COc2ccc(-c3ccc(F)cc3)cc2)(C(=O)O)C1 (single isomer, unassigned) [Example 53]", "Ki": "17.5 nM"}

Query: So what's the measured Ki for this one? O=C(c1ccc(F)cc1)N1CCC(COc2cnc(-c3ccc(Cl)cc3)cn2)(C(=O)O)C1 (single isomer, unassigned) [Example 11]
Response: 28.9 nM

Query: So what's the measured Ki for this one? COc1ccccc1C(=O)N1CCC(COc2cnc(-c3ccc(Cl)cc3)nc2)(C(=O)O)C1 (single isomer, unassigned) [Example 74]
Response: 35.6 nM

Query: So what's the measured Ki for this one? O=C(c1ccc(F)cc1)N1CCC(COc2ccc(-c3ccc(F)cc3)cc2)(C(=O)O)C1 (single isomer, unassigned) [Example 17]
Response: 2.01 nM

Query: So what's the measured Ki for this one? O=C(C1CCC1)N1CCC(COc2ccc(-c3ccc(F)cc3)cc2)(C(=O)O)C1 (single isomer, unassigned) [Example 80]
Response: 344 nM

Query: So what's the measured Ki for this one? Cc1ccc(OC(=O)N2CCC(COc3ccc(-c4ccc(F)cc4)cc3)(C(=O)O)C2)cc1 (single isomer, unassigned) [Example 87]
Response: 225 nM

* * *

Recorded measurements of pKi, one per entry
Molecular target: recombinant human EP-2 receptor (Homo sapiens, UniProt P43116)
Construct: stably transfected with full length cDNA encoding human Prostaglandin E2
Test: In vitro antagonist potency against recombinant human prostaglandin E2 (EP-2) receptor in CHO cells (cAMP, Protocol 1)
Details: CHO cells expressing recombinant human EP-2 receptor, stimulated with 5 nM PGE2; cAMP readout; Ki by Cheng-Prusoff equation; read-out: EP2 Ki
Kindly note that pKi refers to -log10 of the concentration in mol/L and answer with the value alone.

Worked cases, answers included:
{"Compound": "O=C(c1ccc(F)cc1)N1CCC(COc2ccc(-c3ccc(Cl)cn3)cc2)(C(=O)O)C1 (single isomer, unassigned) [Example 12]", "pKi": 8.32}
{"Compound": "COc1ccc(C(=O)N2CCC(COc3cnc(-c4ccc(Cl)cc4)cn3)(C(=O)O)C2)cc1 (single isomer, unassigned) [Example 39]", "pKi": 7.32}

Would you kindly look at the next entry?
Query: So what's the measured pKi for this one? COc1ccc(C(=O)N2CCC(COc3cnc(-c4ccc(Cl)cc4)cn3)(C(=O)O)C2)cc1 (single isomer, unassigned) [Example 38]
Response: 8.51

* * *

Target: recombinant human EP-2 receptor (Homo sapiens)
Construct: stably transfected with full length cDNA encoding human Prostaglandin E2
Assay: In vitro antagonist potency against recombinant human prostaglandin E2 (EP-2) receptor in CHO cells (cAMP, Protocol 1)
Conditions: CHO cells expressing recombinant human EP-2 receptor, stimulated with 5 nM PGE2; cAMP readout; Ki by Cheng-Prusoff equation; read-out: EP2 Ki
Recorded measurements of Ki, one per entry
// note: answer is a bare numeric in nM

{"Molecule": "O=C(c1ccc(Cl)cc1)N1CCC(COc2ccc(-c3ccc(F)cc3)cc2)(C(=O)O)C1 (single isomer, unassigned) [Example 37]", "System tested": "recombinant human EP-2 receptor (Homo sapiens)", "Readout": "Ki", "Uom": "nM", "Quantitative readout": 30.3}
{"Molecule": "O=C(c1ccc(F)cc1)N1CCC(COc2cnc(-c3ccc(Cl)cc3)nc2)(C(=O)O)C1 (single isomer, unassigned) [Example 5]", "System tested": "recombinant human EP-2 receptor (Homo sapiens)", "Readout": "Ki", "Uom": "nM", "Quantitative readout": 1.64}
{"Molecule": "COc1ccc(OC(=O)N2CCC(COc3ccc(-c4ccc(F)cc4)cc3)(C(=O)O)C2)cc1 (single isomer, unassigned) [Example 92]", "System tested": "recombinant human EP-2 receptor (Homo sapiens)", "Readout": "Ki", "Uom": "nM", "Quantitative readout": 7.81}

Query: So what's the measured Ki for this one? O=C(C1CC1)N1CCC(COc2ccc(-c3ccc(F)cc3)cc2)(C(=O)O)C1 (single isomer, unassigned) [Example 83]
Response: 119

Query: So what's the measured Ki for this one? COc1ccc(NC(=O)N2CCC(COc3ccc(-c4ccc(F)cc4)cc3)(C(=O)O)C2)cc1 (single isomer, unassigned) [Example 95]
Response: 1.03

Query: So what's the measured Ki for this one? O=C(c1ccc(F)cc1)N1CCC(COc2ccc(-c3ncc(Cl)cn3)cc2)(C(=O)O)C1 (single isomer, unassigned) [Example 16]
Response: 0.692

* * *

Recorded measurements of pKi, one per entry
Biological target: recombinant human EP-2 receptor (Homo sapiens, UniProt P43116)
Construct: stably transfected with full length cDNA encoding human Prostaglandin E2; expressed in transfected cells
Assay: In vitro antagonist potency against recombinant human prostaglandin E2 (EP-2) receptor in CHO cells (cAMP, Protocol 1)
Assay type: cell-based
Conditions: CHO cells expressing recombinant human EP-2 receptor, stimulated with 5 nM PGE2; cAMP readout; Ki by Cheng-Prusoff equation; read-out: EP2 Ki
Kindly note that pKi refers to -log10 of the concentration in mol/L and answer with the value alone.

{"Compound": "COc1ccccc1C(=O)N1CCC(COc2ccc(-c3ccc(C#N)cn3)cc2)(C(=O)O)C1 (stereo not drawn) [Example 3]", "pKi": 7.61}
{"Compound": "COc1ccc(C(=O)N2CCC(COc3cnc(-c4ccc(Cl)cc4)nc3)(C(=O)O)C2)cc1 (single isomer, unassigned) [Example 50]", "pKi": 8.73}

Would you kindly look at the next entry?
Query: So what's the measured pKi for this one? COc1ccccc1C(=O)N1CCC(COc2ccc(-c3ccc(Cl)cc3)nc2)(C(=O)O)C1 (single isomer, unassigned) [Example 71]
Response: 7.62

* * *

Target: recombinant human EP-2 receptor (Homo sapiens, UniProt P43116)
Construct: stably transfected with full length cDNA encoding human Prostaglandin E2
Test: In vitro antagonist potency against recombinant human prostaglandin E2 (EP-2) receptor in CHO cells (cAMP, Protocol 1)
Details: CHO cells expressing recombinant human EP-2 receptor, stimulated with 5 nM PGE2; cAMP readout; Ki by Cheng-Prusoff equation; read-out: EP2 Ki
// returns Not satisfied unless Ki is strictly below 100 nM, in which case Satisfied

Worked cases, answers included:
{"Molecule": "CCOc1ccccc1C(=O)N1CCC(COc2cnc(-c3ccc(Cl)cc3)cn2)(C(=O)O)C1 (single isomer, unassigned) [Example 51]", "Answer label": "Satisfied"}
{"Molecule": "O=C(Nc1ccccc1F)N1CCC(COc2ccc(-c3ccc(F)cc3)cc2)(C(=O)O)C1 (single isomer, unassigned) [Example 104]", "Answer label": "Not satisfied"}
{"Molecule": "COc1ccccc1C(=O)N1CCC(COc2ccc(-c3ccc(C#N)cc3)cc2)(C(=O)O)C1 (single isomer, unassigned) [Example 67]", "Answer label": "Satisfied"}
{"Molecule": "COc1ccccc1OC(=O)N1CCC(COc2ccc(-c3ccc(F)cc3)cc2)(C(=O)O)C1 (single isomer, unassigned) [Example 94]", "Answer label": "Not satisfied"}
{"Molecule": "CCOc1ccccc1C(=O)N1CCC(COc2cnc(-c3ccc(Cl)cc3)cn2)(C(=O)O)C1 (single isomer, unassigned) [Example 52]", "Answer label": "Not satisfied"}
{"Molecule": "COc1ccc(C(=O)N2CCC(COc3ccc(-c4ccc(Cl)cc4)nc3)(C(=O)O)C2)cc1 (single isomer, unassigned) [Example 44]", "Answer label": "Satisfied"}
{"Molecule": "COc1ccc(C(=O)N2CCC(COc3ccc(-c4ncc(Cl)cn4)cc3)(C(=O)O)C2)cc1 (single isomer, unassigned) [Example 42]", "Answer label": "Satisfied"}

Lab note: next molecule to report on.
Query: Answer whether the molecule CCOc1ccccc1C(=O)N1CCC(COc2ccc(-c3ccc(F)cc3)cc2)(C(=O)O)C1 (single isomer, unassigned) [Example 54] has Ki strictly less than 100 nM
Response: Not satisfied
